- Tested on: P388 leukemia ip, CD2F1 mice, survival T/C
- Procedure Details: NCI In Vivo Anticancer Drug Screen. Data for tumor model P388 Leukemia (intraperitoneal) in CD2F1 (CDF1) mice
- Test Parameters: endpoint: median survival time; dose: 25.0 mg/kg/injection; schedule: Q01DX005 (ip); vehicle: saline; higher = longer survival
Toxic doses and inconclusive results are not listed.

# Compound, T/C
rows = [
    ("Cc1cc2nc3ccc(N(C)C)cc3nc2cc1N", "100 % of control"),
    ("O=C1C[C@@H](c2ccccc2)NCCCCN(O)CCCN1", "106 % of control"),
    ("CCOC(=O)Nc1cc(NC/C(=N/O)c2ccc(OC)cc2)c([N+](=O)[O-])c(N)n1", "94 % of control"),
    ("CN1C2CCC1CC(Cl)C2 (stereo not given)", "102 % of control"),
    ("N#Cc1cn(N(CCO)CCO)c(=O)[nH]c1=O", "105 % of control"),
]
